This collection of values is drawn from PubChem BioAssay (NCI).

system: EKVX NSCLC; assay: NCI-60 one-dose screen, 48 h (100 = growth as untreated, 0 = no growth, -100 = all killed); conditions: 10 µM unless noted
This is part of a sample that, as a whole, favours compounds with a hit. Of some 83,000 tested, about 20% had one in any assay.
Label 0 if growth falls below 60%; label 1 in every other case.

>  <compound>
O=S(=O)(NCCNc1nccc(-c2c(-c3cccc(F)c3)nc3sccn23)n1)c1ccccc1

>  <cat>
0

$$$$
>  <compound>
Nc1c(S(=O)(=O)O)cc2c3c(cccc13)C(=O)OC2=O

>  <cat>
1

$$$$
>  <compound>
N#CC1=C(N)Oc2c(ccc3ccccc23)C1c1ccccc1Cl (configuration not stated)

>  <cat>
1

$$$$
>  <compound>
CCOC(=O)CCN(CC(C)C)C(=S)Nc1ccccc1

>  <cat>
1

$$$$
>  <compound>
O=C(NCCNc1nccc(-c2c(-c3cccc(F)c3)nc3sccn23)n1)c1ccc(Cl)cc1

>  <cat>
1

$$$$
>  <compound>
COc1cc(OC)cc(C(=O)C[n+]2cccc3cc[nH]c32)c1

>  <cat>
1

$$$$
>  <compound>
O=C1Nc2cc(-c3ccc(NC(=O)C4CC4)cc3)ccc2/C1=C/c1ccc[nH]1

>  <cat>
0

$$$$
>  <compound>
Cn1c2ccccc2c2c3c(c4c5ccccc5n(C)c4c21)C(=O)OC3

>  <cat>
1

$$$$
>  <compound>
CCN(c1ccccc1)S(=O)(=O)c1cc([N+](=O)[O-])ccc1Cl

>  <cat>
1

$$$$
>  <compound>
Oc1c(Cl)cc(Cl)c(Cl)c1CNCCNCc1c(O)c(Cl)cc(Cl)c1Cl

>  <cat>
0

$$$$
>  <compound>
CCc1c(Cl)nc(N)nc1Nc1ccc(C)c(C)c1

>  <cat>
1

$$$$
>  <compound>
CC1=C(C(=O)/C=C/c2c[nH]c3ccccc23)C(c2ccccc2)NC(=S)N1 (configuration not stated)

>  <cat>
1

$$$$
>  <compound>
CCCCCOc1ccc(/C=N/Nc2cc(C)nc3ccc(Cl)cc23)cc1

>  <cat>
1

$$$$
>  <compound>
COc1ccc(C/C(C)=C(/c2ccc(OCCCN(C)C)cc2)c2ccc(OC(C)=O)cc2)cc1

>  <cat>
1

$$$$
>  <compound>
O=C(/C=C/c1ccc[nH]1)c1ccc(-n2ccc(C(F)(F)F)n2)c(F)c1

>  <cat>
1

$$$$
>  <compound>
COC(=O)C1=C(C(=O)ON)C2C=CC1(C(Cc1ccccc1)Nc1ccccc1)O2 (configuration not stated)

>  <cat>
1

$$$$
>  <compound>
C=C(C)[C@@H]1CC[C@]2(C(=O)N3CCN(C)CC3)CC[C@]3(C)[C@H](CC[C@@H]4[C@@]5(C)CC[C@H](OCCC#N)C(C)(C)[C@@H]5CC[C@]43C)[C@@H]12

>  <cat>
1

$$$$
>  <compound>
COc1ccc(C(=O)NNc2nc(Cl)nc(N3CCN(C(c4ccccc4)c4ccccc4)CC3)n2)cc1

>  <cat>
1

$$$$
>  <compound>
CC1(C)CC[C@]2(C(=O)O)CC[C@]3(C)C(=CC[C@@H]4[C@@]5(C)Cc6c([nH]c7ccccc67)C(C)(C)[C@@H]5CC[C@]43C)[C@@H]2C1

>  <cat>
0

$$$$
>  <compound>
COc1cc(-c2csc(NC(=O)c3cc(F)cc(C(F)(F)F)c3)n2)cc(OC)c1OC

>  <cat>
0

$$$$
>  <compound>
CCCCCN1C=C/C(=C\C(=O)N(C)c2ccccc2Br)c2ccccc21

>  <cat>
1

$$$$
